We begin with a simple list: items and their reported pEC50.
Biological target: T1, angiopoietin-2 (Ang2) (human, UniProt O15123 68-496, limits assumed, biotinylated in Examples 22-24 (R&D cat#BT633))
T1 construct: also called rhAng2; recombinant Ang2
T1 sequence (looked up): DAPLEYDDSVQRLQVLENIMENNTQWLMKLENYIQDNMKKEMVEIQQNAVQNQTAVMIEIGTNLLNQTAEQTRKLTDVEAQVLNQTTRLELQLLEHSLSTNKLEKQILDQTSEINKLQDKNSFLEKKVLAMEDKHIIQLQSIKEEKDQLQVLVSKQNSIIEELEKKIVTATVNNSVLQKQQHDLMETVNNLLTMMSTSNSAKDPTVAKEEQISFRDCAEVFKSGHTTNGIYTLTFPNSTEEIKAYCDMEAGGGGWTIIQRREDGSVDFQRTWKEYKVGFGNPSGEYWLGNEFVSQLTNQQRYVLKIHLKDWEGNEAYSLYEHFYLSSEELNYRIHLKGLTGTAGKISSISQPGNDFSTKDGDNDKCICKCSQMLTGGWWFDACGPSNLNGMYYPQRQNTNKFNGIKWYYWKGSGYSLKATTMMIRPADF
Assay: MBP fusion protein tested for binding to Ang2; method not restated (direct-binding ELISA in Example 19)
pEC50: −log10 of the molar value. No end group written: not given here.
quantity measured: pEC50

- binder: "KSLSLSPGSGGGSMGAQTNFMPMDDDELLLYEQFILQQGLE (other, not shown: large carriers; small tags and cut ends, not fully specified (N-terminus); also: fused to maltose binding protein carrier at N-terminus) [LM32 variant SEQ ID NO:100 expressed as MBP fusion protein]"
  assay value: 9.62
- binder: "KSLSLSPGSGGGSMGAQTNFMPMDNDEALLYEEFILQQGLE (other, not shown: large carriers; small tags and cut ends, not fully specified (N-terminus); also: fused to maltose binding protein carrier at N-terminus) [LM32 variant SEQ ID NO:97 expressed as MBP fusion protein]"
  assay value: 9.37
- binder: "KSLSLSPGSGGGSMGAQTNFMPMDNDEGLLYEQFIYQQGLE (other, not shown: large carriers; small tags and cut ends, not fully specified (N-terminus); also: fused to maltose binding protein carrier at N-terminus) [LM32 variant SEQ ID NO:93 expressed as MBP fusion protein]"
  assay value: 9.04
- binder: "KSLSLSPGSGGGSMGAQTNFMPMDNDEGLLYEQFILQQGLE (other, not shown: large carriers; small tags and cut ends, not fully specified (N-terminus); also: fused to maltose binding protein carrier at N-terminus) [LM32 variant SEQ ID NO:88 expressed as MBP fusion protein]"
  assay value: 8.98
